Origin of the recorded values: patent US8173635B2

biological target: PKC delta kinase (Homo sapiens, UniProt Q05655); assay: PKC delta kinase inhibition, coupled-enzyme NADH absorbance assay (Ki); format: biochemical; details: 150 μM ATP, 46 nM PKC delta, 30° C.; read-out: Ki PKC delta
Sequence (Q05655 whole entry): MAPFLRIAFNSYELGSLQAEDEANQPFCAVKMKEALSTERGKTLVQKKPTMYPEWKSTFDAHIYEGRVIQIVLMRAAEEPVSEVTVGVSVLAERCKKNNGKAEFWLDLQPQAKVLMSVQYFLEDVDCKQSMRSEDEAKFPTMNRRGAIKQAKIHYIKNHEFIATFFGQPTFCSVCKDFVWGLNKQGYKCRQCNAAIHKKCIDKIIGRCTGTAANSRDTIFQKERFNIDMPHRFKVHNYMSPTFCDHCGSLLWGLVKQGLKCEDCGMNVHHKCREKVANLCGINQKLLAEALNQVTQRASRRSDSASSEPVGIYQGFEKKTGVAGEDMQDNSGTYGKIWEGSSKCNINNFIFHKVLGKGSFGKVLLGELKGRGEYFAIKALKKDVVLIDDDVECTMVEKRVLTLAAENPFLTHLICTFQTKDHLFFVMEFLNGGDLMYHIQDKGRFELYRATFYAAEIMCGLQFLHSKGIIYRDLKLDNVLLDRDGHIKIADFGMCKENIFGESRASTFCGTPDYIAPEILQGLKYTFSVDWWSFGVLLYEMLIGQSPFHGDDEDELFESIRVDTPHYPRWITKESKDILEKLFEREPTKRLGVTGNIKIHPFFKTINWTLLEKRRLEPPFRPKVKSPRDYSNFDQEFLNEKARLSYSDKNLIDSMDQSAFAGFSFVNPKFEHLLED
Measured Metric: Ki

Molecule	Endpoint Value
CCC(C)(CN)c1cccc(-c2ccnc3[nH]nc(C4CC4)c23)c1 (stereo not shown)	< 50 nM
CCC(C)(C#N)c1cc(-c2ccnc3[nH]ncc23)cc(C(F)(F)CCC2CCCC2)c1 (stereo not shown)	> 2000 nM
CC(C#N)(CC(F)F)c1cccc(-c2ccnc3[nH]ncc23)c1 (stereo not shown)	< 2800 nM
CCCc1cc(-c2ccnc3[nH]ncc23)cc(C(C)(C)C#N)c1	> 2800 nM
CC(C)(C#N)c1cc(-c2ccc[nH]2)cc(-c2ccnc3[nH]ncc23)c1	> 2800 nM
CCC(N)c1cccc(-c2ccnc3[nH]ncc23)c1 (stereo not shown)	> 1200 nM
C=Cc1ccc(-c2ccnc3n[nH]cc23)cc1C(C)(C)C#N	> 2800 nM
NCC1(c2cccc(-c3ccnc4[nH]ncc34)c2)CCCC1	< 500 nM
Cc1cc(/C(=C/C#N)CN)cc(-c2ccnc3[nH]ncc23)c1	< 2800 nM
CCC(C)(C#N)c1cc(-c2ccnc3[nH]ncc23)cc(C(C)F)c1 (stereo not shown)	> 2000 nM
COCC[C@](C)(CN)c1cccc(-c2ccnc3[nH]nc(C(F)(F)F)c23)c1	< 2800 nM
Cc1cc(-c2ccnc3[nH]nc(C(F)(F)F)c23)cc(C2(CN)CC2)c1	< 500 nM
NCC1(c2cc(F)cc(-c3ccnc4[nH]nc(C5CC5)c34)c2)CCC1	< 500 nM
OCC1(c2cccc(-c3ccnc4[nH]ncc34)c2)CCC1	> 2000 nM
N#CC(c1cccc(-c2ccnc3[nH]ncc23)c1)N1CCNCC1 (stereo not shown)	> 1200 nM
CC(C)CC(C)(C#N)c1cccc(-c2ccnc3[nH]ncc23)c1 (stereo not shown)	< 2800 nM
CCc1cc(-c2ccnc3[nH]nc(Cl)c23)cc(C(C)(CC)CN)c1 (stereo not shown)	< 500 nM
CC(C)(C#N)c1cccc(-c2ccnc3[nH]ncc23)n1	< 500 nM
N#CC1(c2cccc(-c3ccnc4[nH]nc(C(F)(F)F)c34)c2)CC1	< 500 nM
